Hello, the source for this data is patent US20230105324A1, in case you need it.

study-target: T1, cynomolgus PDGF (cynomolgus)
T1 construct: Printed only as cynomolgus PDGF
assay-details: SPR, Fab fragment; assay format for PDGF not described
metric: t½ (min)
Write it as a number; the unit min goes unstated.

Query string: Report measured t½; entry is bispecific anti-VEGF/anti-PDGF-B Fab fragment 28.07 (Fab, V domains shown) VH: DLQLVESGGGLVKPGGSLRLSCAADGWWFGYTDMSWVRQAPGKGLEWVGSISYKGGHKYLNTKFIGRFTISRDDDTNTLYLQMNSLRAEDTAVYYCARDDGYFDTWGQGTLVTVSS VL: AIYMHQEPSSLSASVGDRVTITCHGSYWLSNYLAWYQQKPGKAPKLLIYDGKEREHGVPSRFSGSGSHEDYTLTISSLQPEDFATYYCQQYRYHPYTFGHGTKVEIKR
Result string: 54
